molecular target: Fuc(a1-2)[GalNAc(a1-3)]Gal(b1-4)Glc; test: glycan array binding signal (z-score within array); higher = stronger binding; conditions: glycan notation: IUPAC condensed, linker removed
This excerpt belongs to a sample that is enriched for the strongest signals.
// reported glycan array binding signal (z-score) for each item listed
Please give only the number in your answer, with no unit.

>>> measured_result("HA-11100 (Pseudomonas aeruginosa), Q02G51_PSEAB (protein) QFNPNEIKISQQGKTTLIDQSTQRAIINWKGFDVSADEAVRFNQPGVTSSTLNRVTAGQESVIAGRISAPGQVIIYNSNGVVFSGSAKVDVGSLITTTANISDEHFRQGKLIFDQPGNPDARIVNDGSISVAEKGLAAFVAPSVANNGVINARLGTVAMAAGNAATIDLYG")
-0.174
>>> measured_result("HBHA-Rv (Mycobacterium tuberculosum), P0A5P6 (protein) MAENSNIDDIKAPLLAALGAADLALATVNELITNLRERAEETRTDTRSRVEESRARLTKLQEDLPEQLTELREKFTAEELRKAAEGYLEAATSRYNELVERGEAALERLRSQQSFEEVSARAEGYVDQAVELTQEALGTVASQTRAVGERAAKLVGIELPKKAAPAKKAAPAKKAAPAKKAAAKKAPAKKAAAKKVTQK")
0.064
>>> measured_result("RSVL (Crotalus atrox), P21963 (protein) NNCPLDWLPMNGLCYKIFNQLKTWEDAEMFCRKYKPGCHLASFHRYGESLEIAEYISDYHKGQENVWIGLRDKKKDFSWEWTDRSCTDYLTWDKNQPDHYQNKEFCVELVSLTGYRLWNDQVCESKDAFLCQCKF")
1.84

IN: Item GH98CBM (Clostridium perfringens) (protein) EVYALEESRDVYLSDLDWLNATHGDDTKSKIVQKNHPFTPGNNNQSTKISLKMEDGSISEFEKGLGTIAGSPSTITYDISGAGVTKFFSYLGIDRSANPINEQYAKVDKIEVVVDGKVIYSTINQFPNGLTYETPAIKVDLNIPENAKRLQLKSYAGEKTWGDEVVYADAKFTAKGDFVN has what recorded glycan array binding signal (z-score)?
OUT: 6.66
